tested on: human recombinant stromelysin; experiment: Stromelysin Inhibition in vitro; assay type: biochemical; conditions: read-out: Stromelysin IC50 (nM) or % inhibition: IC50
assay endpoint: IC50 (nM)
The response must be a number in nM with no trailing unit.

Challenge: Output measured IC50 for this item: `CCCCCCC[C@H](CC(=O)CS)C(=O)N[C@H](C(=O)NC)C(C)(C)C`
Response given: 28

Origin of values: patent US5852213A
